- target or system: T1, 4-1BB Fc (human, UniProt Q07011 24-183)
- T1 construct: also called rh-41BB; 41BB-hFc
- T1 sequence (Q07011 24-183): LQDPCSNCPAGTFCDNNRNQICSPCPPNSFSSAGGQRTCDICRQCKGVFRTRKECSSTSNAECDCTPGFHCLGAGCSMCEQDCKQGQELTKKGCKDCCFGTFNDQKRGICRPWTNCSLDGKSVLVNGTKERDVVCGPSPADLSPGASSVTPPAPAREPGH
- procedure details: ELISA, 4-1BB Fc coated, VHH at 5 nM
Exercise: for every item that follows, state its recorded OD450.
Please reply with the number alone, leaving off any unit.

Request: For the binder 4-1BB-3 (VHH, not shown: small tags and cut ends) VHH: EVQLVESGGGLVQAGGSLRLSCAASGNIFSYNGMAWYRQAPGNQRELVAVVAIDGTAKYADTVKGRFTISRDNIKNTVNLEMNSLKPEDTAVYTCAALRNSGSTSWGQGTQVTVSS , what OD450 is on record?
Response: 0.089

Request: Try the binder 4-1BB-39 (VHH, not shown: small tags and cut ends) VHH: QVQLGSLGGGSAQPGGSLRLSCTGSGNVYDFVVMGWYRQFPGRQRELVANITGRASPNYVDSVKGRFTISRDNAQNTVHLQMNNLKVEDSAIYYCYAAQQLTTIAGVMTLDYWGSGTQVTVSS
Response: 0.07

Request: For 4-1BB-1 (VHH, not shown: small tags and cut ends) VHH: QVQLVESGGGLVQAGGSLRLSCAASENIFSFNAMAWYRQAPGKQRELVALITGDGTTKYADSVKGRFTIARLNAKNTVNLEMNSLKPEDTAVYTCAALRNSDRTSWGQGTQVTVSS then?
Response: 0.108

Request: Then what about the binder 4-1BB-10 (VHH, not shown: small tags and cut ends) VHH: EVQLVESGGGLVQAGGSLRLSCAASGAIFSYNGMAWYRQAPGKQREFVAVITPDGTTKYGDSVKGRFTISRDITKNTVDLEMNSLKPEDTAVYTCAALRNSGSTSWGQGTQVTVSS ?
Response: 0.828
